B1: library; a variant is named by its letters at N, in order (parent)
chain: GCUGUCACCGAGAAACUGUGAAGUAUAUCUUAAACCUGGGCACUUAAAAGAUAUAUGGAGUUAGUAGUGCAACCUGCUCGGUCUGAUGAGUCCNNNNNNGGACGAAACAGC

# Variants of: B1
# ASSAY NAME: normalized RNA/DNA level without ligand (relative to sTRSVctl = 100) (log10 (% of sTRSVctl)); HEK293T; ligand: cyclic di-GMP (c-di-GMP-II aptamer); higher = less ribozyme self-cleavage, higher mRNA level
# TEST PARAMETERS: reporter: mCherry (pCS4076), ligand present: no
TEST READOUT: normalized RNA/DNA level without ligand (log10)
Give a plain numeric answer without units written out.

AUCAAG    1.57

So for `GAUCAA` , the logged normalized RNA/DNA level without ligand (log10) turned out to be 1.57

So for `GCAGGG` , the logged normalized RNA/DNA level without ligand (log10) turned out to be 1.6

So for `UACAUG` , the logged normalized RNA/DNA level without ligand (log10) turned out to be 1.71

So for `ACGGCA` , the logged normalized RNA/DNA level without ligand (log10) turned out to be 1.65

So for `UCCUCU` , the logged normalized RNA/DNA level without ligand (log10) turned out to be 1.74

So for `UCCGUA` , the logged normalized RNA/DNA level without ligand (log10) turned out to be 1.51
